test protocol: Pharmacokinetic experiment in rats
Assay type: in vivo, SD rats
condition parameters: male, SD, rat, plasma; rats, Oral-Dose 20 mg/kg; read-out: Area Curve (AUC, ng/mL · h)
Please provide measured AUC for the entries that follow.
Your answer should be a number followed by the unit of measure.

May I ask what AUC has been recorded for CCN1C(=O)C2(CCOCC2)c2ccc(-c3cc(C(=O)NCc4c(C)cc(C)[nH]c4=O)c(C)c(N(CC)C4CCOCC4)c3)cc21 [Example 18] ?
1190 ng·h/mL

Also check CCN(c1cc(-c2ccc3c(c2)N(CCC(F)(F)F)C(=O)C32CCOCC2)cc(C(=O)NCc2c(C)cc(C)[nH]c2=O)c1C)C1CCOCC1 [Example 14]
1290 ng·h/mL

Now the molecule CCN(c1cc(-c2ccc3c(c2)N(C)C(=O)C32CCNCC2)cc(C(=O)NCc2c(OC)cc(C)[nH]c2=O)c1C)C1CCOCC1 [Example 34]
1750 ng·h/mL

Further, for CCN(c1cc(-c2cc3c(cc2F)CCC32CCOCC2)cc(C(=O)NCc2c(C)cc(C)[nH]c2=O)c1C)C1CCOCC1 [Example 24] ?
1350 ng·h/mL

Follow-up item: CCN(c1cc(-c2ccc3c(c2)NCC32CCOCC2)cc(C(=O)NCc2c(OC)cc(C)[nH]c2=O)c1C)C1CCNCC1 [Example 5]
1570 ng·h/mL

What about this molecule? CCN(c1cc(-c2ccc3c(c2)N(CC(F)(F)C(F)(F)F)C(=O)C32CCOCC2)cc(C(=O)NCc2c(C)cc(C)[nH]c2=O)c1C)C1CCOCC1 [Example 39]
1090 ng·h/mL

----------
Please provide measured half-life for the entries that follow.
test protocol: Pharmacokinetic experiment in rats
Format: in vivo, SD rats
condition parameters: male, SD, rat, in vivo, iv, 4 mg/kg
Description: A certain amount of compound was weighted and dissolved in 0.1% Tween under vortex and ultrasound, and 0.5% carboxymethyl cellulose sodium (CMC-NA) solution was added to form a uniform solution.
Numbers only; they are read as h.

Query (compound): CCN1CCC2(CC1)CN(C)c1cc(-c3cc(C(=O)NCc4c(C)cc(C)[nH]c4=O)c(C)c(N(CC)C4CCOCC4)c3)ccc12 ; field requested: half-life
1.24

Lookup CCN(c1cc(-c2ccc3c(c2)NC(=O)C32CCN(C3COC3)CC2)cc(C(=O)NCc2c(C)cc(C)[nH]c2=O)c1C)C1CCOCC1
1.38

Subsequent entry: CCN(c1cc(-c2ccc3c(c2)C=CC32CCN(C(C)C)CC2)cc(C(=O)NCc2c(OC)cc(C)[nH]c2=O)c1C)C1CCOCC1
1.25

----------
Field: IC50. Provide a value for each of the molecules that follow.
target desc: wild-type EZH2 (Homo sapiens (Human))
Sequence (Q15910 whole entry, one chain of several): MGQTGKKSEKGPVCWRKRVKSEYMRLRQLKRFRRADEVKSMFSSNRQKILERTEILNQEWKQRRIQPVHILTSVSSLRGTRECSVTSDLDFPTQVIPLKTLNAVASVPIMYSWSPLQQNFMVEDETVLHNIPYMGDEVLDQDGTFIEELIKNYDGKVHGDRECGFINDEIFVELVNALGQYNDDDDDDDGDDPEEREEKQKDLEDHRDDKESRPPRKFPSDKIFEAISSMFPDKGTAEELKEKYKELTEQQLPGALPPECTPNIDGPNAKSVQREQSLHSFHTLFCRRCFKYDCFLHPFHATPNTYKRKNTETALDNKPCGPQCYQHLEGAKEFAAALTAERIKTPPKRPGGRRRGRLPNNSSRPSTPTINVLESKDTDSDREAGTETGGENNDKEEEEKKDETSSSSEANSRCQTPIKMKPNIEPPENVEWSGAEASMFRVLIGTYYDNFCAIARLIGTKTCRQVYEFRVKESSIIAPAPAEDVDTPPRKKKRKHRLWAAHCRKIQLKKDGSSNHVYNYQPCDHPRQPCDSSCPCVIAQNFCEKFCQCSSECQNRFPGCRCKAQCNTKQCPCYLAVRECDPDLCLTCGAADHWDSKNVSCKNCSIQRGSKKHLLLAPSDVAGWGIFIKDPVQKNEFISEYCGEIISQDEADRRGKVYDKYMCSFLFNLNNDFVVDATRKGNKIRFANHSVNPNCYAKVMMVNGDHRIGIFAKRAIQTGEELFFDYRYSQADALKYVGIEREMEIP
test protocol: radiometric assay, activity to wild-type EZH2 of PRC2
condition parameters: read-out: Wild-type EZH2 IC50 Nanomoles per Liter
Just the number please, in nM, no unit attached.

What does the data say about its IC50? Entry: CCN(c1cc(-c2ccc3c(c2)NC(=O)C32CCOCC2)cc(C(=O)NCc2c(OC)cc(C)[nH]c2=O)c1C)C1CCOCC1OC (stereo not drawn)
1.02

Subsequent entry: CCN(c1cc(-c2ccc3c(c2)NC(=O)C32CCOCC2)cc(C(=O)NCc2c(C)cc(C)[nH]c2=O)c1C)C1CCOCC1F (stereo not drawn)
0.92

// same read-out, input: CCN(c1cc(-c2ccc3c(c2)NC(=O)C32CCOCC2)cc(C(=O)NCc2c(C)cc(C)[nH]c2=O)c1C)C1CCOCC1OC (stereo not drawn)
0.96

----------
target desc: Mutant type EZH2(Y641F) (Homo sapiens (Human), UniProt Q15910, Y641F)
Sequence (Q15910 whole entry Y641F): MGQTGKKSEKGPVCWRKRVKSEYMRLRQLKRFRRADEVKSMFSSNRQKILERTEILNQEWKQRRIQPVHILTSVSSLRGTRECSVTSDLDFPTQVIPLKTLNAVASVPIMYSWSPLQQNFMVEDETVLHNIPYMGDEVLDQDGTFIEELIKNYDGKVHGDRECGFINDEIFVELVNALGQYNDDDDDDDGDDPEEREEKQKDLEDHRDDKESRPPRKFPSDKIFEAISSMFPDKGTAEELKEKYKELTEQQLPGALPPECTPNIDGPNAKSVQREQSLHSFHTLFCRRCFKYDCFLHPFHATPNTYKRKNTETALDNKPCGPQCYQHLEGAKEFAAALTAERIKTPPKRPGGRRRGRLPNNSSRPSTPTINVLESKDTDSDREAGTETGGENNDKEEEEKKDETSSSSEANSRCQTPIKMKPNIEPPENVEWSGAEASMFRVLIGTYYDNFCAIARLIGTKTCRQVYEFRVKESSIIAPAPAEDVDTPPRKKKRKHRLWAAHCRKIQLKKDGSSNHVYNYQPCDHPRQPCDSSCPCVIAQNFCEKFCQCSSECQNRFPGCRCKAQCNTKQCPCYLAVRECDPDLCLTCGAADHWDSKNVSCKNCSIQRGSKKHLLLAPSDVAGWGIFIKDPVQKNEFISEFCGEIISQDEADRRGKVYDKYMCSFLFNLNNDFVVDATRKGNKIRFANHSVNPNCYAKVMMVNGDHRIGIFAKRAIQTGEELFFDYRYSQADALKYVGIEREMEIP
Sequence (O75530 whole entry partner): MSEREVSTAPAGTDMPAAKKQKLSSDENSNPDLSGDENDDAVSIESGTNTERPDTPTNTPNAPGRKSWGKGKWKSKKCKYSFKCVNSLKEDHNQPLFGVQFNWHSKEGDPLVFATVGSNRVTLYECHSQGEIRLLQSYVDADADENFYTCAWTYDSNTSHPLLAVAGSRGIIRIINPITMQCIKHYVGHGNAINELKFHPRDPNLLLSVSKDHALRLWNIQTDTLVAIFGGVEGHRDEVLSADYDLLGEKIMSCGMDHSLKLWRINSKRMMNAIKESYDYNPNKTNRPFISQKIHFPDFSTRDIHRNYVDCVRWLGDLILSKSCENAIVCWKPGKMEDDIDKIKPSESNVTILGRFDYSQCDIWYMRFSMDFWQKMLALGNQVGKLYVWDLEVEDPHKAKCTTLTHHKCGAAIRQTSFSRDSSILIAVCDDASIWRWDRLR
Sequence (Q15022 whole entry partner): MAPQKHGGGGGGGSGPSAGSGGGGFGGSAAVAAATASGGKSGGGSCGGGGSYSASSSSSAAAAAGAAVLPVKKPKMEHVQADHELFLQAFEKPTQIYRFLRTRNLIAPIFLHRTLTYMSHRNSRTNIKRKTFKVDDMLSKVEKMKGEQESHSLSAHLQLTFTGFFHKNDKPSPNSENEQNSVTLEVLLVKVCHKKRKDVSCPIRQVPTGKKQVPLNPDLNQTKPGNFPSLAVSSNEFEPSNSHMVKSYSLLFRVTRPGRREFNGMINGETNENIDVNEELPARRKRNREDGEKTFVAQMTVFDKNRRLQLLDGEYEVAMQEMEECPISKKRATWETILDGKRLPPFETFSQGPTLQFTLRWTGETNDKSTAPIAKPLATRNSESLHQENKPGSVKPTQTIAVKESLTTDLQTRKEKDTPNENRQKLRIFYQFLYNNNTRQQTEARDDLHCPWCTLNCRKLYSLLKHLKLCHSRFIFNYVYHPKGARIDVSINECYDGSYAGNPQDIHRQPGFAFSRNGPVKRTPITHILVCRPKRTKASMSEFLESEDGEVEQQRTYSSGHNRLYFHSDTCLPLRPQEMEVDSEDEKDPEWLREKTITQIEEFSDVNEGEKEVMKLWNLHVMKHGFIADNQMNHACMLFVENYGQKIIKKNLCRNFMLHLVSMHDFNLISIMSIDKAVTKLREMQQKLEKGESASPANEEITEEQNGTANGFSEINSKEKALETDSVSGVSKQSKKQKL
Sequence (Q09028 whole entry partner): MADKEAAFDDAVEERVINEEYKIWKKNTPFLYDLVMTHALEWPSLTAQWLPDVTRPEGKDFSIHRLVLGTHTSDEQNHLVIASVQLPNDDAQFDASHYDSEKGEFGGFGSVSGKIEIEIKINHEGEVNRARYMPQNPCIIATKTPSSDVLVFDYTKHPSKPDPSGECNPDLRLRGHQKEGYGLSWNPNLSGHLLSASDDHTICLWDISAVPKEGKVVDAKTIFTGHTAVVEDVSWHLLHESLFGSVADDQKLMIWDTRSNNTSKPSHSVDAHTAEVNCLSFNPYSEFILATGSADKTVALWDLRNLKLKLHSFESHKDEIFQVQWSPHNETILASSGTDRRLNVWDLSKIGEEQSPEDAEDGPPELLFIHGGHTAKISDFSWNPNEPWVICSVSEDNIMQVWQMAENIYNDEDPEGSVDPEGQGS
Sequence (Q6ZN18 whole entry partner): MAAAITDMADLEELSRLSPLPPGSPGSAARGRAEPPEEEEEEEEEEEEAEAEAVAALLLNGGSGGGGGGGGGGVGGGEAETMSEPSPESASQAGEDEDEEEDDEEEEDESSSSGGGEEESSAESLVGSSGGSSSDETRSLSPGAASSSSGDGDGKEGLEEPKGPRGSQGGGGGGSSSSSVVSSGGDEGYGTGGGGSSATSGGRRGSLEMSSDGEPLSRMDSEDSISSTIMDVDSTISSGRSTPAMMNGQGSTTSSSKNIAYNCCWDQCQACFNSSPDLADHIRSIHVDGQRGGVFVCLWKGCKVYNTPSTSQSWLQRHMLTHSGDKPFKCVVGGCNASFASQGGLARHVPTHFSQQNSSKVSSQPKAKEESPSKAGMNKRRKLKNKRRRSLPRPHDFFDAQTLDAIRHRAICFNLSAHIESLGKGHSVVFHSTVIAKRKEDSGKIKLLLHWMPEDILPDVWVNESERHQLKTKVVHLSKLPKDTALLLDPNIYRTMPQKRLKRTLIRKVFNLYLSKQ
test protocol: AlphaLISA, mutant type PRC2 complex EZH2(Y641F)
condition parameters: read-out: Mutant type EZH2(Y641F) IC50 Nanomoles per Liter
Give pIC50 for every item shown.
Value format note: pIC50 is -log10 of concentration (mol/L); just state the number.

Please report the recorded pIC50 for CCN(c1cc(-c2ccc3c(c2)NC(=O)C32CCOCC2)cc(C(=O)NCc2c(C)cc(C)[nH]c2=O)c1C)C1CC(C)OC(C)C1 (centres unmarked) .
9.51

Next record, please: CCN(c1cc(-c2ccc3c(c2)NC(=O)C32CCOCC2)cc(C(=O)NCc2c(C)cc(C)[nH]c2=O)c1C)C1CCN(C2COC2)CC1
9.28

What do you have for CCN(c1cc(-c2ccc3c(c2)NC(=O)C32CCOCC2)cc(C(=O)NCc2c(C)cc(C)[nH]c2=O)c1C)C1CCOCC1F (centres unmarked) ?
9.20

Now give it for CCN(c1cc(-c2cc3c(cc2F)CCC32CCOCC2)cc(C(=O)NCc2c(C)cc(C)[nH]c2=O)c1C)C1CCOCC1 too.
9.25

Same for CCN(c1cc(-c2ccc3c(c2)NC(=O)C32CCOCC2)cc(C(=O)NCc2c(C)cc(C)[nH]c2=O)c1C)C1CCOCC1OC (centres unmarked)
9.05

----------
Please go through the items and note down their pIC50.
Test system: human diffuse large B-cell lymphoma cells (Karpas 422 cell)
test protocol: Karpas 422 cell proliferation, Calcein AM staining
Assay type: cell-based
condition parameters: Homo sapiens, KARPAS-422; data of 14th day; read-out: Karpas422 Proliferation IC50 Nanomoles per Liter
pIC50 here is simply -log10 of the concentration when that concentration is written in mol/L.

Please report the recorded pIC50 for CCN(c1cc(-c2ccc3c(c2)C(=O)C2(CCOCC2)C3)cc(C(=O)NCc2c(C)cc(C)[nH]c2=O)c1C)C1CCOCC1 .
8.66

Another compound: CCN(c1cc(-c2ccc3c(c2)NC(=O)C32CCC(=O)CC2)cc(C(=O)NCc2c(C)cc(C)[nH]c2=O)c1C)C1CCOCC1
8.55

Now give it for CCN(c1cc(-c2ccc3c(c2)C=CC32CCN(C(C)C)CC2)cc(C(=O)NCc2c(OC)cc(C)[nH]c2=O)c1C)C1CCOCC1 too.
9.02

----------
test protocol: Pharmacokinetic experiment in rats
Type: in vivo, SD rats
condition parameters: male, SD, rat, plasma; rats, Intravenous-Dose 4 mg/kg; read-out: Area Curve (AUC, ng/mL · h)
Record form. Attribute: AUC. Fill in for each entry.
Remember to put the unit after the number in your answer.

Fill blank: measured AUC of the compound CCN(c1cc(-c2ccc3c(c2)N(CCC(F)(F)F)C(=O)C32CCOCC2)cc(C(=O)NCc2c(C)cc(C)[nH]c2=O)c1C)C1CCOCC1 is ____.
966 ng·h/mL

Also, CCN(c1cc(-c2ccc3c(c2)N(C)C(=O)C32CCNCC2)cc(C(=O)NCc2c(OC)cc(C)[nH]c2=O)c1C)C1CCOCC1 please.
966 ng·h/mL

Then what about the compound CCN(c1cc(-c2ccc3c(c2)N(C)C(=O)C32CCN(C(=O)OC)CC2)cc(C(=O)NCc2c(C)cc(C)[nH]c2=O)c1C)C1CCOCC1 ?
943 ng·h/mL

Also, CCN(c1cc(-c2ccc3c(c2)N(C(C)C(C)C)CC32CCOCC2)c(Cl)c(C(=O)NCc2c(C)cc(C)[nH]c2=O)c1C)C1CCOCC1 (stereo not drawn) please.
933 ng·h/mL

Input CCN(c1cc(-c2ccc3c(c2)N(CC(F)(F)C(F)(F)F)C(=O)C32CCOCC2)cc(C(=O)NCc2c(C)cc(C)[nH]c2=O)c1C)C1CCOCC1
897 ng·h/mL

And then CCN(c1cc(-c2cc3c(cc2F)CCC32CCOCC2)cc(C(=O)NCc2c(OC)cc(C)[nH]c2=O)c1C)C1CCOCC1 , what is it?
956 ng·h/mL

----------
target desc: Mutant type EZH2(Y641F) (Homo sapiens (Human), UniProt Q15910, Y641F)
test protocol: AlphaLISA, mutant type PRC2 complex EZH2(Y641F)
condition parameters: read-out: Mutant type EZH2(Y641F) IC50 Nanomoles per Liter
Assignment: determine reported pIC50 for the given molecules.
Note: pIC50 values are expressed as the negative base-10 logarithm of concentration in M.

Look at this molecule and give its reported pIC50. CCN(c1cc(-c2cnc3c(c2)NC(=O)C32CCOCC2)cc(C(=O)NCc2c(C)cc(C)[nH]c2=O)c1C)C1CCOCC1
9.02

Follow-up entry: CCN(c1cc(-c2ccc3c(c2)NC(=O)C32CCN(C3COC3)CC2)cc(C(=O)NCc2c(C)cc(C)[nH]c2=O)c1C)C1CCOCC1
9.20

For CCN(c1cc(-c2ccc3c(c2)NC(=O)C32CCN(C(C)=O)CC2)cc(C(=O)NCc2c(C)cc(C)[nH]c2=O)c1C)C1CCOCC1 then?
9.21

Next molecule up: CCN(c1cc(-c2ccc3c(c2)NC(=O)C32CCOCC2)cc(C(=O)NCc2c(C)cc(C)[nH]c2=O)c1C)C1CCS(=O)(=O)CC1
9.06

Same question for CCN(c1cc(-c2ccc3c(c2)NCC32CCOCC2)cc(C(=O)NCc2c(C)cc(C)[nH]c2=O)c1C)C1CCNCC1 please.
9.70

Now consider CCN(c1cc(-c2ccc3c(c2)C2(CCC(F)CC2)C(=O)N3)cc(C(=O)NCc2c(C)cc(C)[nH]c2=O)c1C)C1CCOCC1 (stereo not shown) and answer again.
9.02

Then CCN(c1cc(-c2ccc3c(c2)NC(=O)C32CCC(C)(O)CC2)cc(C(=O)NCc2c(C)cc(C)[nH]c2=O)c1C)C1CCOCC1 (stereo not shown) ?
9.24

Thanks! And CCN(c1cc(-c2ccc3c(c2)NC(=O)C32CCOCC2)cc(C(=O)NCc2c(C)cc(C)[nH]c2=O)c1C)C1CCC(N(C)C2COC2)CC1 (stereo not shown) ?
9.13

Try this molecule too: CCN(c1cc(-c2ccc3c(c2)NC(=O)C32CCC(O)CC2)cc(C(=O)NCc2c(C)cc(C)[nH]c2=O)c1C)C1CCOCC1 (stereo not shown)
9.14

Also CCN(c1cc(-c2ccc3c(c2)CCC2(CCOCC2)C3=O)cc(C(=O)NCc2c(C)cc(C)[nH]c2=O)c1C)C1CCOCC1 , if possible.
9.09

Okay, and CCN(c1cc(-c2ccc3c(c2)NC(=O)C32CCOCC2)cc(C(=O)NCc2c(OC)cc(C)[nH]c2=O)c1C)C1CCC(N(C)CCOC)CC1 (stereo not shown) ?
9.17

What do you get for CCN(c1cc(-c2ccc3c(c2)NC(=O)C32CCNCC2)cc(C(=O)NCc2c(C)cc(C)[nH]c2=O)c1C)C1CCNCC1 ?
9.03

// repeat for CCN(c1cc(-c2ccc3c(c2)NC(=O)C32CCC(F)(F)CC2)cc(C(=O)NCc2c(C)cc(C)[nH]c2=O)c1C)C1CCOCC1 and report
9.31
